Biological target: CYP154C3-2 (Streptomyces sp., UniProt A0A7S9IUH5)
Construct: full-length CDS 1,254 bp (417 residues), N-terminal Trx-His-S-enterokinase fusion from pET32a(+) kept, E. coli C41(DE3), ~65 kDa on SDS-PAGE (~45 kDa theoretical without fusion), heme protein
Test: type I spectral shift titration (A390-A420), tight-binding quadratic fit
Provide the recorded Kd for the entries that follow.
Write the value in µM as a bare number.

Task item: Look up Kd: CC(=O)[C@H]1CC[C@H]2[C@@H]3CCC4=CC(=O)CC[C@]4(C)[C@H]3CC[C@]12C
Reply: 0.409

Task item: Any idea what Kd was measured for C[C@]12C[C@H](O)[C@H]3[C@@H](CCC4=CC(=O)CC[C@@]43C)[C@@H]1CC[C@@H]2C(=O)CO ?
Reply: 44.5

Task item: Item under review: C[C@]12CC[C@H]3[C@@H](CCC4=CC(=O)CC[C@@H]43)[C@@H]1CC[C@@H]2O . Reported Kd?
Reply: 6.58

Task item: So what's the measured Kd for this one? C[C@]12CCC(=O)C=C1CC[C@@H]1[C@@H]2C(=O)C[C@]2(C)C(=O)CC[C@@H]12
Reply: 0.443

Task item: Reported Kd, molecule C[C@]12CCC(=O)C=C1CC[C@@H]1[C@@H]2CC[C@]2(C)C(=O)CC[C@@H]12 : ____
Reply: 0.475
